# subject of test: human IFN-α21 (human, UniProt P01568 24-189)
# Sequence (P01568 24-189 limits assumed): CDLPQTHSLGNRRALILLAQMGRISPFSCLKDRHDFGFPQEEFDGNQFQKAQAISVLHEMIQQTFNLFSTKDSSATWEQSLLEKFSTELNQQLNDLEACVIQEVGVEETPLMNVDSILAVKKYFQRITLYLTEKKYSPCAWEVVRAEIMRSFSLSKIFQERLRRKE
# assay remarks: cell-based or functional assay
measure: IC 50 (ng/ml), ISRE dual luciferase reporter assay (ng/mL)
A number alone suffices; assume ng/mL.

Data request: I have this binder here, 8H1 (antibody, human IgG1, kappa, V domains shown) VH: QVQLVQSGAEVKKPGASVKVSCKASGQTFTSDDINWVRQAPGQGLEWMGWRNPNTQDTGYAQKFHGRLTLTSNSSISTSYLELSGLRSEDTAVYYCARAGTSTLTGHYFALGVWGQGTTVIVSS VL: DIQLTQSPSSLSASVGDRVTITCQATQDISKYLNWYQQKPGKVPKLLIYETSNLEVGVPSRFSGSGSGTHFTLTISSLQAEDFATYYCQQYENFPFTFGGGTKVEIKR , and I need its recorded IC 50 (ng/ml), ISRE dual luciferase reporter assay.
Data returned: 2.78
